For each entry below, report its inhibition value.
# ASSAY DETAILS: H1N1 influenza NS1A inhibitors, functional cell based assay (AID 504329)
# RUN PARAMETERS: percent inhibition, at 12.5 µM, stronger effect = higher value
Out of some 340,000 compounds screened, about 1,000 (0.29%) were called active. These entries were drawn from the full list. Measured potencies and affinities stand elsewhere.

Quick one: give measured inhibition for Oc1ccccc1C=NNC(=S)NN=Cc1ccccc1O
16.5% (inactive)

Tell me measured inhibition for CSc1ccc(CN(C)C(=O)c2cc(Cl)c3c(c2)OCCO3)cc1 please.
0.05% (inactive)

Look up inhibition of Cc1nn(-c2ccccc2)c2c1C(c1cccs1)C(C#N)=C(N)O2 (stereo not given) and report it.
11.8% (inactive)

Give inhibition for O=C1/C(=C/c2ccc(O)c([N+](=O)[O-])c2)SC(=S)N1Cc1ccccc1
8.28% (inactive)

Answer with the recorded inhibition of CCOC(=O)N1CCN(C(=O)c2sc3nc(-c4ccc(F)cc4)cn3c2C)CC1 only.
-1.44% (inactive)

For the compound Cc1ccccc1C(=O)NNC(=S)NC(=O)c1ccccc1 , give its reported inhibition.
-4.23% (inactive)

Provide inhibition value for the following compound: Cc1c(C)n(Cc2ccccc2)c2ccc(C(=O)OCCN(C)C)cc12
18.7% (inactive)

State its inhibition for this compound: O=C(NCCCN1CCOCC1)C(=O)NCC1OCCCN1S(=O)(=O)c1cc(F)ccc1F (stereo not given)
-1.53% (inactive)

Answer with reported inhibition of O=C(NCCc1ccccc1)c1cc(-c2ccccc2)c(N2CCOCC2)s1
1.49% (inactive)

Complete the entry with inhibition for CC(C)(C)OC(=O)N[C@H](C(=O)OC(C)(C)C)c1ccc(C(F)(F)F)cc1
8.11% (inactive)

Please give the documented inhibition of O=[N+]([O-])c1cc([N+](=O)[O-])c(Oc2ccc(Br)cc2Br)cc1NN1CCCCC1
-0.23% (inactive)

Return inhibition for the following compound: O=C(c1cc2cc(F)ccc2[nH]1)N1CCCC(Nc2ccc(F)cc2)C1 (stereo not given)
9.28% (inactive)

Provide only the value of recorded inhibition for CCCN(CC(=O)Nc1ccccc1C)C(=O)c1ccc(=O)n(Cc2ccccc2)n1
5.93% (inactive)

Give the measured inhibition for Cc1ccccc1C(=O)NNC(=S)NC(=O)c1cccnc1
2.35% (inactive)

Please indicate inhibition recorded for C/C(CC(=O)NC1CCCCCC1)=N\NC(=O)c1cnccn1
2.22% (inactive)

Give a short answer stating reported inhibition for NC(=S)N/N=C/c1cccc(/C=N/NC(N)=S)c1 .
-0.05% (inactive)

Dear colleague, please send me the reported inhibition for Cc1ccc(-n2nc(C)c3c2OC(N)=C(C#N)C3c2ccncc2)cc1 (stereo not given) when you can.
-2% (inactive)

Hello, please tell me recorded inhibition for this one: O=C(NNC(=S)NC(=O)c1ccccc1)c1cccnc1
4.4% (inactive)

Find the measured inhibition of Cc1ccc(C2=NOC(=O)/C2=C\C=C\c2ccccc2)cc1 and report it.
-3.38% (inactive)

State its inhibition: O=C(NCC(c1ccco1)N1CCc2ccccc21)C(=O)Nc1ccc(F)cc1F (stereo not given)
-6.42% (inactive)

Assign inhibition to the following record: Cc1c(C)n(CCN(C)C)c2ccc(C(=O)OCCN(C)C)cc12
-4.19% (inactive)

Note down inhibition recorded for O=C(NC(=S)NNC(=O)c1ccccc1O)c1ccc([N+](=O)[O-])cc1
1.41% (inactive)

Kindly indicate its recorded inhibition. Item: Cc1ccc(-n2nc(C)c3c2OC(N)=C(C#N)C3c2ccco2)cc1 (stereo not given)
15.8% (inactive)

Tell me inhibition reported for Cc1nn(-c2ccccc2)c2c1C(c1ccccc1)C(C#N)=C(N)O2 (stereo not given)
-4.13% (inactive)

Quickly give me recorded inhibition for CCOC(=O)N1CCc2c(sc(NC(=O)C3COc4ccccc4O3)c2C(N)=O)C1 (stereo not given)
-11.4% (inactive)

Please give measured inhibition of the following entry: O=c1c(-c2ccnn2-c2ccc(F)cc2)cnc2n1CCS2
11.8% (inactive)

Please look at this compound and report its inhibition: COc1ccccc1-n1nnnc1SCC(=O)NCC1CCCO1 (stereo not given)
-3.64% (inactive)

Please give measured inhibition of the following entry: C/C(=N\NC(=S)NC1CCCCC1)c1ccccc1
11.5% (inactive)

Annotate the compound CSCC[C@H](NC(=O)OC(C)(C)C)C(=O)N1CCC(C(=O)N[C@@H](C)C(=O)NC(C)c2ccccc2)CC1 (stereo not given in full) with its measured inhibition.
4.49% (inactive)

Output inhibition of O=C(NNC(=S)NC(=O)c1ccccc1)c1cccc([N+](=O)[O-])c1
-20.7% (inactive)

In one line, give reported inhibition of the entry CCNC(=S)N(Cc1ccc2c(c1)OCO2)C1CC(=O)N(c2ccc(OC)cc2)C1=O (stereo not given) .
-4.24% (inactive)

# return recorded inhibition for input COc1cc(C(=O)NCc2nnc(SCC(=O)N3CCCCCC3)o2)cc(OC)c1OC
0.67% (inactive)

Supply measured inhibition of CC(=O)N1N=C(c2ccc(Br)cc2)OC12CCCC2 in your reply.
-0.33% (inactive)

Assign inhibition to the following record: O=C/C=C/c1ccccc1
2.7% (inactive)

Tell us which inhibition value is on record for COc1cc(CN(C)C)cc(C=O)c1O
1.87% (inactive)

###

Exercise: for every item that follows, state its recorded inhibition.
# ASSAY DETAILS: H1N1 influenza NS1A inhibitors, functional cell based assay (AID 504329)
# RUN PARAMETERS: percent inhibition, at 12.5 µM, stronger effect = higher value
The campaign covered roughly 340,000 compounds. About 1,000 (0.29%) were called active. A selection follows. Potency and affinity values are given separately.
Answer in %, number only, no unit symbol.

Answer with the recorded inhibition of Cc1ccc(CNCC(O)(c2ccccc2)c2ccc(Cl)cc2)cc1 (stereo not given) only.
6.37

Determine its reported inhibition: CCCn1c(N)c(C(=O)CSc2nnc3n2CCCCC3)c(=O)n(C)c1=O
-16.1

Give a short answer stating reported inhibition for Cc1ccc2oc(Nc3nc(C)c(C)c(C)n3)nc2c1 .
-16.7

Report inhibition, nothing else, for this molecule: COC(=O)c1ccccc1NC(=O)c1cccs1
11.6

For O=C(NCCC1=CCCCC1)C(=O)NCCc1ccc(Cl)cc1 , write its inhibition.
1.14

###

# ASSAY DETAILS: H1N1 influenza NS1A inhibitors, functional cell based assay (AID 504329)
# RUN PARAMETERS: percent inhibition, at 12.5 µM, stronger effect = higher value
Out of some 340,000 compounds screened, about 1,000 (0.29%) were called active. Not all results are given here. Results with a measured potency or affinity are listed apart.
Please provide measured inhibition for the entries that follow.
# number only, unit % dropped from output

Answer with the recorded inhibition for the molecule listed here: O=C(CSc1ccc2nnc(-c3ccncc3)n2n1)Nc1nccs1
-1.97

Could you please provide reported inhibition for Cc1cc(C)cc(OCC(O)Cn2nc(C)cc2C)c1 (stereo not drawn) ? Thanks!
-5.82

Please list inhibition recorded for the molecule CCc1ccc2[nH]c3nc(N/N=C/c4ccc(O)cc4O)nnc3c2c1
1.89

Indicate its recorded inhibition; the molecule in question is COc1ccc(C)cc1NC(=O)CSc1ccc(-c2cccnc2)nn1
-8.69

Using the record for COc1ccc(C(=O)Nc2ccc(Cl)cc2C(=O)N2CCCC(C)C2)cc1OC (stereo not drawn) , state its measured inhibition.
-10.1

Specify inhibition for CS(=O)(=O)c1ccc(-c2cccc(NC(=O)COc3ccc(Cl)cc3)c2)nn1 and stop.
7.16

Determine from records and report inhibition for COc1ccc(/C=C(/NC(=O)c2ccco2)C(=O)Nc2ccc(C(=O)O)cc2)cc1
-7.59

Give the value of inhibition reported for the following: Cc1nnc(NC(=O)CSc2ccc3nnc(-c4ccccn4)n3n2)s1
15.4

Hello, please tell me recorded inhibition for this one: Cn1c(SCC(=O)N2CCCC2=O)nnc1-c1ccccc1F
6.14

Tell us which inhibition value is on record for Cc1c(C(=O)OCC(=O)Nc2cccc(S(N)(=O)=O)c2)oc2c1ccc1ccccc12
-6.11

Given the molecule Cc1ccc2c(c1)c(N=Nc1cccc(C(=O)O)c1)c(O)n2C , write its reported inhibition.
-0.45

Retrieve inhibition measured for CCCC(OC(=O)CC1Sc2ccccc2NC1=O)C(=O)NCc1ccco1 (stereo not drawn) and print it.
4.36

Tell me measured inhibition for Cc1ccccc1NC(=O)CSc1ccc(-c2ccccn2)nn1 please.
12.1

State its inhibition: CCOC(=O)c1c(NC(=O)COC(=O)c2ccccn2)sc(C(=O)N(C)C)c1C
-8.42

Give inhibition for COc1ccc(Cc2nnc(SC)[nH]c2=O)cc1OC
-0.91

Name the recorded inhibition of the molecule listed here: O=C(O)c1ccc(Nc2nc(-c3ccccc3)nc3ccccc23)cc1
-15.2

Return reported inhibition. Input molecule: O=C(Nc1cccc(-n2cnnn2)c1)c1ccc(C(F)(F)F)cc1
-1.71

Let me know recorded inhibition for COc1ccc2oc(C(=O)OCC(=O)N3CC(C)CC(C)C3)c(C)c2c1 (stereo not drawn) , thanks.
-0.35
